- Measurement Target: ROCK2 (Homo sapiens (Human), UniProt O75116)
- Sequence (O75116 11-552): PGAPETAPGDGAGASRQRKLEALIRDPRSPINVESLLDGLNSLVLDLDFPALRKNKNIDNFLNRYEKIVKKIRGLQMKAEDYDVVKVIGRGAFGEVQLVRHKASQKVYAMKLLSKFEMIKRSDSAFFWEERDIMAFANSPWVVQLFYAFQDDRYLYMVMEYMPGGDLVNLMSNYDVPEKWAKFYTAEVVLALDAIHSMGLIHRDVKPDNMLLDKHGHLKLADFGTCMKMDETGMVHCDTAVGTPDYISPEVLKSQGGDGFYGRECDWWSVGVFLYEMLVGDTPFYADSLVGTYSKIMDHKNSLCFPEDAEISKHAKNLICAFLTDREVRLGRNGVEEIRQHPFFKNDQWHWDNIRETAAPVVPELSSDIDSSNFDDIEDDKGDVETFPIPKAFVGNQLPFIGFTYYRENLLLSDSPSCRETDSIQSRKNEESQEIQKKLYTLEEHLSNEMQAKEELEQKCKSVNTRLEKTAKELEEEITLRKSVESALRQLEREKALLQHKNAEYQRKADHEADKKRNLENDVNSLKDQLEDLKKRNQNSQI
- Assay Remarks: Rho Kinase Inhibition Assay (IMAP fluorescence polarization)
- Run Parameters: isolated enzyme, 10 μM ATP, 60 minutes at room temperature
Measurement Name: IC50 (µM)

Compound	Measurement Target	IC50 / µM
OCCOc1cccc(CN2CCC[C@H](Nc3ccc4[nH]ncc4c3)C2)c1	ROCK2 (Homo sapiens (Human), UniProt O75116)	0.354
C(#CC1CC1)c1ccc(CN2CCCC(Nc3ccc4[nH]ncc4c3)C2)cc1 (centres unmarked)	ROCK2 (Homo sapiens (Human), UniProt O75116)	6.51
NC(=O)Cn1ccc2ccc(CN3CCC[C@@H](Nc4ccc5[nH]ncc5c4)C3)cc21	ROCK2 (Homo sapiens (Human), UniProt O75116)	0.0692
OC[C@@H](O)COc1cccc(CN2CCC[C@@H](Nc3ccc4[nH]ncc4c3)C2)c1	ROCK2 (Homo sapiens (Human), UniProt O75116)	0.555
c1cc2c(cc1CN1CCCC(Nc3ccc4[nH]ncc4c3)C1)OCCO2 (centres unmarked)	ROCK2 (Homo sapiens (Human), UniProt O75116)	0.189

A. CCc1ccc(CN2CCCC(Nc3ccc4[nH]ncc4c3)C2)cc1 (centres unmarked)
B. FC(F)(F)c1cccc(CN2CCCC(Nc3ccc4[nH]ncc4c3)C2)c1 (centres unmarked)
C. CN(c1cccc(CN2CCCC(Nc3ccc4[nH]ncc4c3)C2)c1)S(C)(=O)=O (centres unmarked)
Hello, I need these entries ordered by IC50, highest reading first. Thanks! In your reply, arrange the labels in the requested order.
C, B, A

These data points were gathered from patent US8604218B2.
